Where do these numbers come from? They come from patent US10662182B2.

Catalogue of inhibition of growth at 200 ppm values
system: Glomerella lacenarium (Colletotrichum lacenarium); test: Glomerella lagenarium / liquid culture (anthracnose); format: cell-based; conditions: 200 ppm in the formulation, inhibition of growth measured photometrically, compared to untreated checks, read-out: disease control

compound | inhibition of growth at 200 ppm
CC(NC(=O)c1nc(Nc2cc(F)cc(F)c2)sc1Br)C1CCCCC1 (stereo not shown) | ≥ 80%
CC12CCCC(NC(=O)c3nc(Nc4cc(F)cc(F)c4)sc3Br)C1CC2 (stereo not shown) | ≥ 80%
CC1(C)C2CCCC2C1NC(=O)c1nc(Nc2cc(F)cc(F)c2)sc1Br (stereo not shown) | ≥ 80%
Cc1sc(Nc2cc(F)cc(F)c2)nc1C(=O)NC(C)C1CCCCC1 (stereo not shown) | ≥ 80%
Cc1sc(Nc2cc(F)cc(F)c2)nc1C(=O)NC1CCCC2(C)CCC12 (stereo not shown) | ≥ 80%
Cc1sc(Nc2cc(F)cc(F)c2)nc1C(=O)NC1CCC12CCC2 (stereo not shown) | ≥ 80%
Cc1sc(Nc2cc(F)nc(F)c2)nc1C(=O)NC1CCC12CCCC2 (stereo not shown) | ≥ 80%
Cc1sc(Nc2cc(F)cc(F)c2)nc1C(=O)NC1CC12CC2 (stereo not shown) | ≥ 80%
Cc1sc(Nc2cc(F)nc(F)c2)nc1C(=O)NC1CC12CC2 (stereo not shown) | ≥ 80%
Cc1sc(Nc2cc(F)cc(F)c2)nc1C(=O)NC1C2CCCC2C1(C)C (stereo not shown) | ≥ 80%
O=C(NC1CCC12CCC2)c1nc(Nc2cc(F)cc(F)c2)sc1Br (stereo not shown) | ≥ 80%
Cc1sc(Nc2cc(F)cc(F)c2)nc1C(=O)NC(C)(C#N)C(C)C (stereo not shown) | ≥ 80%
Cc1sc(Nc2cc(F)cc(F)c2)nc1C(=O)NC1CCC12CCCC2 (stereo not shown) | ≥ 80%
